Listed compounds paired with reported Fold-Increase (G-762 to G-691)
Tested on: AZT-resistant clinical isolates of HIV-1
Experiment: microbe, parasite or virus in culture
Assay type: cell-based
Settings: post-AZT G-691 versus pre-AZT G-762

Recorded Fold-Increase (G-762 to G-691), per entry:
[
  {
    "compound": "CCCCCCCCCCCCSCC(COP(=O)([O-])OCC[N+](C)(C)C)OCCCCCCCCC(=O)OCC(=O)OC[C@H]1O[C@@H](n2cc(C)c(=O)[nH]c2=O)C[C@@H]1N=[N+]=[N-] (stereo partly shown) [INK-20]",
    "assaySystem": "AZT-resistant clinical isolates of HIV-1",
    "Fold-Increase (G-762 to G-691)": 18.6
  },
  {
    "compound": "CCCCCCCCCCCCSCC(COP(=O)([O-])OCC[N+](C)(C)C)OCCCCCCCCOCc1ccccc1 (stereo not shown) [INK-17]",
    "assaySystem": "AZT-resistant clinical isolates of HIV-1",
    "Fold-Increase (G-762 to G-691)": 0
  },
  {
    "compound": "CCCCCCCCCCCCSCC(COP(=O)([O-])OCC[N+](C)(C)C)OCCCCCCCCCCCCOC(=O)CC(=O)OC[C@H]1O[C@@H](n2cc(C)c(=O)[nH]c2=O)C[C@@H]1N=[N+]=[N-] (stereo partly shown) [INK-26]",
    "assaySystem": "AZT-resistant clinical isolates of HIV-1",
    "Fold-Increase (G-762 to G-691)": 20
  }
]

Recorded Fold-Increase (G-762 to G-691) for CCCCCCCCCCCCSCC(COP(=O)([O-])OCC[N+](C)(C)C)OCCCCCCCCCCOC(=O)CC(=O)OC[C@H]1O[C@@H](n2cc(C)c(=O)[nH]c2=O)C[C@@H]1N=[N+]=[N-] (stereo partly shown) [INK-25] , please? 2

====

Test system: AZT-resistant clinical isolates of HIV-1
Experiment: microbe, parasite or virus in culture
Type: cell-based
Conditions: pre-AZT isolate, patient code G-762; mean of 2 to 4 independent tests; read-out: EC50 Pre-AZT G-762
reportedProperty: EC50 (µM)
Give just the number in µM; leave the unit off.

[
  {
    "compound": "CCCCCCCCCCCCSCC(COC(=O)CC(=O)OC[C@H]1O[C@@H](n2cc(C)c(=O)[nH]c2=O)C[C@@H]1N=[N+]=[N-])OC (stereo partly shown) [INK-19]",
    "assaySystem": "AZT-resistant clinical isolates of HIV-1",
    "EC50, µM": 0.12
  },
  {
    "compound": "CCCCCCCCCCCCSCC(COP(=O)([O-])OCC[N+](C)(C)C)OCCCCCCCCCCCCO (stereo not shown) [INK-24]",
    "assaySystem": "AZT-resistant clinical isolates of HIV-1",
    "EC50, µM": 0.19
  },
  {
    "compound": "CCCCCCCCCCCCSCC(COP(=O)([O-])OCC[N+](C)(C)C)OCCCCCCCCCCOC(=O)CC(=O)OC[C@H]1O[C@@H](n2cc(C)c(=O)[nH]c2=O)C[C@@H]1N=[N+]=[N-] (stereo partly shown) [INK-25]",
    "assaySystem": "AZT-resistant clinical isolates of HIV-1",
    "EC50, µM": 0.03
  },
  {
    "compound": "CCCCCCCCCCCCSCC(COP(=O)([O-])OCC[N+](C)(C)C)OCCCCCCCCCCCCOC(=O)CC(=O)OC[C@H]1O[C@@H](n2cc(C)c(=O)[nH]c2=O)C[C@@H]1N=[N+]=[N-] (stereo partly shown) [INK-26]",
    "assaySystem": "AZT-resistant clinical isolates of HIV-1",
    "EC50, µM": 0.003
  },
  {
    "compound": "CCCCCCCCCCCCSCC(COP(=O)([O-])OCC[N+](C)(C)C)OCCCCCCCCOCc1ccccc1 (stereo not shown) [INK-17]",
    "assaySystem": "AZT-resistant clinical isolates of HIV-1",
    "EC50, µM": 0.26
  }
]

Lab note: need EC50 with AZT-resistant clinical isolates of HIV-1 for entry CCCCCCCCCCCCSCC(COP(=O)([O-])OCC[N+](C)(C)C)OCCCCCCCCC(=O)OCC(=O)OC[C@H]1O[C@@H](n2cc(C)c(=O)[nH]c2=O)C[C@@H]1N=[N+]=[N-] (stereo partly shown) [INK-20] , please look it up. 0.04

====

Test: Cytotoxicity in Vero cell monolayers (cell morphology)
Format: cell-based, monkey
Conditions: monkey, Vero cell monolayers (monkey kidney cells), 48 hours at 37° C., lowest concentration changing morphology in at least 25% of the cells, read-out: Cytotoxicity (TC50)
reportedProperty: CC50 at 48 h

# get_value(readout='CC50 at 48 h', item= Nc1nc2c(ncn2COCCO)c(=O)[nH]1 [Acyclovir, reference compound] ) > 20 µM

====

Tested on: AZT-resistant clinical isolates of HIV-1
Assay: microbe, parasite or virus in culture
Type: cell-based
Conditions: post-AZT isolate, patient code G-910; mean of 2 to 4 independent tests; read-out: EC50 Post-AZT G-910
EC50 reference
Give the value in nM but do not write nM after it.

[
  {
    "compound": "CCCCCCCCCCCCSCC(COP(=O)([O-])OCC[N+](C)(C)C)OCCCCCCCCCCCCOC(=O)CC(=O)OC[C@H]1O[C@@H](n2cc(C)c(=O)[nH]c2=O)C[C@@H]1N=[N+]=[N-] (stereo partly shown)",
    "unitTag": "nM",
    "EC50": 30
  },
  {
    "compound": "CCCCCCCCCCCCSCC(COP(=O)([O-])OCC[N+](C)(C)C)OCCCCCCCCOCc1ccccc1 (stereo not shown)",
    "unitTag": "nM",
    "EC50": 200
  },
  {
    "compound": "CCCCCCCCCCCCSCC(COP(=O)([O-])OCC[N+](C)(C)C)OCCCCCCCCCCCCO (stereo not shown)",
    "unitTag": "nM",
    "EC50": 250
  },
  {
    "compound": "CCCCCCCCCCCCSCC(COP(=O)([O-])OCC[N+](C)(C)C)OCCCCCCCCC(=O)OCC(=O)OC[C@H]1O[C@@H](n2cc(C)c(=O)[nH]c2=O)C[C@@H]1N=[N+]=[N-] (stereo partly shown)",
    "unitTag": "nM",
    "EC50": 440
  },
  {
    "compound": "CCCCCCCCCCCCSCC(COP(=O)([O-])OCC[N+](C)(C)C)OCCCCCCCCO (stereo not shown)",
    "unitTag": "nM",
    "EC50": 1040
  }
]

Pending compound:
# get_value(readout='EC50', item= CCCCCCCCCCCCSCC(COP(=O)([O-])OCC[N+](C)(C)C)OCCCCCCCCCCOC(=O)CC(=O)OC[C@H]1O[C@@H](n2cc(C)c(=O)[nH]c2=O)C[C@@H]1N=[N+]=[N-] (stereo partly shown) ) 10

====

Test system: CEM-SS cells
Assay: Cytotoxicity (TC50) of the compounds tested for anti-HIV-1 activity
Assay type: cell-based, human
reportedProperty: CC50 (µM)
Dear colleague, please return just the value in µM, with no unit written.

Bench note: what CC50 did CCCCCCCCCCCCSCC(COP(=O)([O-])OCC[N+](C)(C)C)OCCCCCCCCOCc1ccccc1 (stereo not shown) show? 49.1

====

Test system: CEM-SS cells
Assay: Cytotoxicity (TC50) of the compounds tested for anti-HIV-1 activity
Format: cell-based, human
Conditions: read-out: Cytotoxicity (TC50)
Mark y only for CC50 values smaller than 50 µM; exact matches and larger values are n.

[
  {
    "molecule": "CCCCCCCCCCCCSCC(COP(=O)([O-])OCC[N+](C)(C)C)OCCCCCCCCCCCCOCc1ccccc1 (stereo not drawn) [INK-23]",
    "qualitativeLabel": "n"
  },
  {
    "molecule": "CCCCCCCCCCCCSCC(COP(=O)([O-])OCC[N+](C)(C)C)OCCCCCCCCCCOCc1ccccc1 (stereo not drawn) [INK-21]",
    "qualitativeLabel": "n"
  },
  {
    "molecule": "CCCCCCCCCCCCSCC(COP(=O)([O-])OCC[N+](C)(C)C)OCCCCCCCCC(=O)OCC(=O)OC[C@H]1O[C@@H](n2cc(C)c(=O)[nH]c2=O)C[C@@H]1N=[N+]=[N-] (stereo partly drawn) [INK-20]",
    "qualitativeLabel": "y"
  },
  {
    "molecule": "CCCCCCCCCCCCSCC(COP(=O)(O)OCC1OC(n2cc(C)c(=O)[nH]c2=O)CC1N=[N+]=[N-])OCCCCCCCCCC (stereo not drawn) [BM21-1290]",
    "qualitativeLabel": "y"
  }
]

We now examine a further molecule.
In the record for CCCCCCCCCCCCSCC(COC(=O)CC(=O)OC[C@H]1O[C@@H](n2cc(C)c(=O)[nH]c2=O)C[C@@H]1N=[N+]=[N-])OC (stereo partly drawn) [INK-19] , is CC50 less than 50 µM? y
